biological target: recombinant human IDE42-1019 (Homo sapiens, UniProt P14735); construct: recombinant human IDE42-1019 (R&D Systems); purchased R&D Systems; assay: Protease assay with fluorogenic peptide substrate Mca-[…](Dnp)-OH; assay type: biochemical; conditions: fluorogenic peptide Mca-RPPGFSAFK(Dnp)-OH; apparent IC50 for compounds with submaximal inhibition; read-out: IC50 (μM) Proteolysis
Sequence (P14735 42-1019): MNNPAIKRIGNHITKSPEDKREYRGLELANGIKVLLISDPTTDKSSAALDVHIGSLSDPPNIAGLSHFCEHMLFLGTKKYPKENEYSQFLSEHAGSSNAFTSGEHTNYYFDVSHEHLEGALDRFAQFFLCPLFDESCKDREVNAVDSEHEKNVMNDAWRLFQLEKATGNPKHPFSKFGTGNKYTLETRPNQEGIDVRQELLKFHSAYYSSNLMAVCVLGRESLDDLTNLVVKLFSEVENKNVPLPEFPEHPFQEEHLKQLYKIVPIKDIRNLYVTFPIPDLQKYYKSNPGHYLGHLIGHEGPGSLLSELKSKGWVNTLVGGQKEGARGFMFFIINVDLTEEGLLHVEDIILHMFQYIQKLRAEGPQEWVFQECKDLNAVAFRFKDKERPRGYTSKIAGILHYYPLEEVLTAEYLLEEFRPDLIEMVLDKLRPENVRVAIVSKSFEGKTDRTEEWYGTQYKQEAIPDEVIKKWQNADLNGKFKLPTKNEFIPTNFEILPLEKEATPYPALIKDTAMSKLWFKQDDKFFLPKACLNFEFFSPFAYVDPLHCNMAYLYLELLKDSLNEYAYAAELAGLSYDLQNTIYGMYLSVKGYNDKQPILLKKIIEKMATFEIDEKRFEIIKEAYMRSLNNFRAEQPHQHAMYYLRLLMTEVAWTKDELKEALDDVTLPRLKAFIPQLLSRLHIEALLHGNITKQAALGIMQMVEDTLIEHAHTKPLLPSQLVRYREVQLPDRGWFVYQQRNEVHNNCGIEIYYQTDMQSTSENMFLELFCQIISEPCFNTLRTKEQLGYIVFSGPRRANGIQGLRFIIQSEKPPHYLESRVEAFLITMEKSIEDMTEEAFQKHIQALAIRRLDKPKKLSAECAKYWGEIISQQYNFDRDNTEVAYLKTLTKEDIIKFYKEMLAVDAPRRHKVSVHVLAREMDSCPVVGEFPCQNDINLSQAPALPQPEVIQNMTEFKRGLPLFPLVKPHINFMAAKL
parameter: IC50 (µM)

Cc1cccc(-c2ccc(C3CCN(S(=O)(=O)c4ccc(F)c5ncccc45)CC3)cc2)c1C [A07]
3

(A) Cc1cc(O)ccc1-c1ccc([C@@H]2[C@@H](CO)N3CCCCN(S(=O)(=O)c4ccccc4C)C[C@@H]23)cc1 [JP-31]
(B) COc1ccc(-c2ccc([C@@H]3[C@@H](CO)N4CCCCN(S(=O)(=O)c5ccccc5C)C[C@@H]34)cc2)c(C)c1 [K17]
Exercise: // compare measured IC50 between A and B ; output the lower one // output: label of the selected item
Key: B
(B: 0.9 µM, A: 3 µM)
